System: VchCAST RNA-guided transposition machinery (E. coli BL21(DE3) host, lacZ target)
Assay: relative integration efficiency (T-LR orientation) vs wild-type transposon end (log2 (normalized fold change)); transposon end mutated: left end; higher = more efficient transposition

# sequence-string, relative integration efficiency (log2)
rows = [
    ("AATGTTGTTGATGCAACCATAAAATGATAATTAATAATTATTTATAATCAGCAACTTAACCACAAAACAACCATATATTGATATCTCACAAAAGTTGGTATTCAACTATAAAATGTGAATCGAGTATTTCAGCAAAACTACTGCAGTAAGAA", -0.862),
    ("AATGTTGTTGATGCACAACGCCCTGTCGCGGGCCGCCGGCGGGCGCCGACTACCAGGCCAACACCCCACCAACGCGCGGTCGCGAGACACCCCACCAACGCCTGGTCGCGGGGGTGTCCGATCTGATTTCAGCAAAACTACTGCAGTAAGAA", "< -10"),
    ("AATGTTGTTGATGCAACCATAAAGTGATATTTAATAATTATTTATAATCAGCAACTTAACCACAAAAACCAACGCGCGGTCGCGAGACACCCCACCAACGCCTGGTCGCGGGGGTGTCCGATCTGATTTCAGCAAAACTACTGCAGTAAGAA", -4.28),
    ("AATGTTGTTGATGCAACCATAAAGTGATATTTAATAATTATTTATAATCAGCAACTTAACCACAAAACAACCATAAGTTGATATTTTACAAAAGTTGGTATTCAACTATAAAATGTGAATCGAGTATTTCAGCAAAACTACTGCAGTAAGAA", -0.485),
    ("AATGTTGTTGATGCAACCATAAAGTTCGCGGGCCGCCGGCGGGCGCCGACTACCAGGCCAACACCCCACCAACGCGCGGTCGCGAGACACCCCACCAACGCCTGGTCGCGGGGGTGTCCGATCTGATTTCAGCAAAACTACTGCAGTAAGAA", "< -10"),
    ("AATGTTGTTGATGCAACCATAAAGTGATATTTAATAATTATTTATAATCAGCAACTCAACCATATATTGATATCTCACAAAACAACCATAAGTTGATATTTTTGTGAATCGAGTATTTCAGCAAAACTACTGCAGTAAGAAAGTTACTTCGT", -3.27),
    ("AATGTTGTTGATGCAACCATAAAGTGATATTTAATAATTATTTATAATCAGCAACTTAACCACACAACCATATATTGATATCTCACAAAACAACCATAAGTTGATATTTTTGTGAATCGAGTATTTCAGCAAAACTACTGCAGTAAGAAAGT", -2.81),
    ("AATGTTGTTGATGCACCCATAAATTGATAATTAATAATTATTTATAATCAGCAACTTAACCACAAAACACCCATAAATTGATAATTAACAAAAGTTGGTATTCAACTATAAAATGTGAATCGAGTATTTCAGCAAAACTACTGCAGTAAGAA", -1.11),
    ("AATGTTGTTGATGCAACCATAAAGTGATATTTAATAATTATTTATAATCAGCAACTTAACCACAAAACAACCATATATTGATATCTCACAACAACCATAAGTTGATATTTTTGTGAATCGAGTATTTCAGCAAAACTACTGCAGTAAGAAAG", -1.51),
    ("AATGTTGTTGATGCAACCATAAAGTGATATTTAATAATTCAACCATATATTGATATCTCATTTATAATCAGCAACTTAACCACAAAAACAAAACAACCATAAGTTGATATTTTTGTGAATCGAGTATTTCAGCAAAACTACTGCAGTAAGAA", -2.63),
    ("AATGTTGTTGATGCAACCATAAAGTGATATTTAAATTGTGAGCGGATAACAATTCTTAACCACAAAACAACCATATATTGATATCTCACAAAACAACCATAAGTTGATATTTTTGTGAATCGAGTATTTCAGCAAAACTACTGCAGTAAGAA", -3.23),
    ("AATGTTGTTGATGCAACCATAAAGTGATATTTAATCAACCATATATTGATATCTCAATTATTTATAATCAGCAACTTAACCACAAAAACAAAACAACCATAAGTTGATATTTTTGTGAATCGAGTATTTCAGCAAAACTACTGCAGTAAGAA", -0.334),
    ("AATGTTGTTGATGCAACCATAAAATGATAATTAATAATTATTTATAATCAGCAACTTAACCACAAAACACCCATAAATTGATATTGCACAAAAGTTGGTATTCAACTATAAAATGTGAATCGAGTATTTCAGCAAAACTACTGCAGTAAGAA", -1.48),
    ("AATGTTGTTGCAACCATAAAGTGATATTTAATAATTATTTATAATCAGCAACTTAACCACAAAACAACCATATATTGATATCTCACAAAACAACCATAAGTTGATATTTTTGTGAATCGAGTATTTCAGCAAAACTACTGCAGTAAGAAAGT", -1.44),
    ("AATGTTGTTGATGCACCCATAAATTGATATTGCATAATTATTTATAATCAGCAACTTAACCACAAAACAACCATAAAGTGATATTTAACAAAAGTTGGTATTCAACTATAAAATGTGAATCGAGTATTTCAGCAAAACTACTGCAGTAAGAA", -1.73),
    ("AATGTTGTTGATGTAATTATCATTTTATGGTTGATAATTATTTATAATCAGCAACTTAACCACAAAACAACCATAAAATGATAATTAACAAAACAACCATAAAATGATAATTATGTGAATCGAGTATTTCAGCAAAACTACTGCAGTAAGAA", "< -10"),
    ("AATGTTGTTGATGCAACCATAAAGTGATATTTAACAAGACTAACATTATTAGTAACTGAGAACTATGCAACCATATATTGATATCTCACAAAACAACCATAAGTTGATATTTTTGTGAATCGAGTATTTCAGCAAAACTACTGCAGTAAGAA", -2.85),
]
